Molecular target: T1, PSMA Fab (006 PSMA Fab) (biotinylated (site not stated))
T1 construct: also called Anti-PSMA Fab; anti-PSMA Fab
Assay: clonal phage ELISA on biotinylated PSMA Fab captured on neutravidin plate, blocking buffer alone; anti-M13 HRP detection
PARAMETER MEASURED: Phage binding ELISA signal, Anti-PSMA Fab

BINDER: DVGMCRPKWMCDGF (peptide, not shown: large carriers, Clonal phage of the peptide-180 library, tested as crude phage supernatant) [Phage-3759]
VAL: 1.36
--
BINDER: GNIWCEPAWMCVGF (peptide, not shown: large carriers, Clonal phage of the peptide-180 library, tested as crude phage supernatant) [Phage-3771]
VAL: 1.34
--
BINDER: VLPSCIPSWMCNGF (peptide, not shown: large carriers, Clonal phage of the peptide-180 library, tested as crude phage supernatant) [Phage-3760]
VAL: 1.36
--
BINDER: MVIECRPEWMCVGF (peptide, not shown: large carriers, Clonal phage of the peptide-180 library, tested as crude phage supernatant) [Phage-3765]
VAL: 1.35
